SUBJECT_OF_TEST: human FGFR1c + KLB receptor complex on HEK293 iLite FGF21 reporter cells (human, UniProt P11362 22-822; Q86Z14 1-1044)
Sequence (P11362 22-822, chain 1 of 2): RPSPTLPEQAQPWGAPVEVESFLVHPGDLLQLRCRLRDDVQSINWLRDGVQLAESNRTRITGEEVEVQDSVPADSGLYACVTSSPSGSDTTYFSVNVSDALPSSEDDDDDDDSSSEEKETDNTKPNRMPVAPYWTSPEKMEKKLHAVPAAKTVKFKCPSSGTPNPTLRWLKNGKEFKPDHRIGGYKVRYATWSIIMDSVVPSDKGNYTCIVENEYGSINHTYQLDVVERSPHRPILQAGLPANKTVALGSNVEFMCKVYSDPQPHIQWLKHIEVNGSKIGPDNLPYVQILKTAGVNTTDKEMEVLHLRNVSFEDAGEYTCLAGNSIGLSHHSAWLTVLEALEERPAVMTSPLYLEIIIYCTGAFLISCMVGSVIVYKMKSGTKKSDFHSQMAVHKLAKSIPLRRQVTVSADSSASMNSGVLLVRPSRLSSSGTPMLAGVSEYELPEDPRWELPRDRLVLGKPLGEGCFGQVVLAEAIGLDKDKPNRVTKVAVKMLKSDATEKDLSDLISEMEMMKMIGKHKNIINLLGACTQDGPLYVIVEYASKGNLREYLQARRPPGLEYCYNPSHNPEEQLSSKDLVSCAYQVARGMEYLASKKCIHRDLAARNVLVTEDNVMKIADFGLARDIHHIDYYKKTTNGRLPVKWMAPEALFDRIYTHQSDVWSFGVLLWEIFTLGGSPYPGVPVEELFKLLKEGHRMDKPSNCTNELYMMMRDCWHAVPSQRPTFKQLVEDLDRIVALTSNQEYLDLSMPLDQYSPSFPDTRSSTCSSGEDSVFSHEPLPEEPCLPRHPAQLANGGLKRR
Sequence (Q86Z14 whole entry, chain 2 of 2): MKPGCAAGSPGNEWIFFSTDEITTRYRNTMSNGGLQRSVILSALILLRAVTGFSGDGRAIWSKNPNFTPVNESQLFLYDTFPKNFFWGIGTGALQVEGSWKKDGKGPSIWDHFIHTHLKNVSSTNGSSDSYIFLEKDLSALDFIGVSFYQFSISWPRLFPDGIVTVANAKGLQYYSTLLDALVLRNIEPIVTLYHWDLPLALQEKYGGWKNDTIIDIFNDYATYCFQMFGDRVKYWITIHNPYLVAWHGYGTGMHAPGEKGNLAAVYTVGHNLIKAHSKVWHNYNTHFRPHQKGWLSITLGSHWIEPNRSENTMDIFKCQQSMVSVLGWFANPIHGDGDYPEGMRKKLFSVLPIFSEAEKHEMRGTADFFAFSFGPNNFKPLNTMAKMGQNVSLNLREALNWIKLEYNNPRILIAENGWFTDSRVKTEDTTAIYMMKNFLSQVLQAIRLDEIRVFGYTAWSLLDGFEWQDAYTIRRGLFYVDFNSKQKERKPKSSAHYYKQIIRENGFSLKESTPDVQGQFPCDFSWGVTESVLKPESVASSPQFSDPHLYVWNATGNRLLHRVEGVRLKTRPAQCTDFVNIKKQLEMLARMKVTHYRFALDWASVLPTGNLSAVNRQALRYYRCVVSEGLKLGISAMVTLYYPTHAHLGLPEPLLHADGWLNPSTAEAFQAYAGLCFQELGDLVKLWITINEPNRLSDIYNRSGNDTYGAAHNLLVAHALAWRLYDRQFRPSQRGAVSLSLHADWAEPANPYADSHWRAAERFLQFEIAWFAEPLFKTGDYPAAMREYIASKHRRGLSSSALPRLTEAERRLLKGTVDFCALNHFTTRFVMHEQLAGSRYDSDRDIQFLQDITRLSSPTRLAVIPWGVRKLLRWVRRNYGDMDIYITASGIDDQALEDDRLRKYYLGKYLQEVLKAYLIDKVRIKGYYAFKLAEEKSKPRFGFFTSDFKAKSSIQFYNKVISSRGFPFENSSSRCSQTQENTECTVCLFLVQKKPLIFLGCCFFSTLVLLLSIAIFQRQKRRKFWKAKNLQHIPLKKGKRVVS
PROTOCOL_SUMMARY: cell-based or functional assay
Field: Emax. Provide a value for each of the binders that follow.
Enter your answer as a number in %; do not include the unit.

Request: If you can, please state the reported Emax value of Ab0345 (antibody, IgG4, V domains shown, IgG4 PE) VH: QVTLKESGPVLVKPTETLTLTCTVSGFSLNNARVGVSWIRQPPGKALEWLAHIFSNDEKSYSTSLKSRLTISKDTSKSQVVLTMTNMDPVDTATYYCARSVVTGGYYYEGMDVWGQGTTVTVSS VL: SYVLTQPPSVSVAPGQTARITCGGSNIGSESVHWYQQKPGQAPVLVVYAASDRPSGIPERFSGSNSGNTATLTISRVEAGDEADYYCQVWEGASDHVVFGGGTKLTVLG .
Response: 908

Request: Can you share its Emax? I mean this binder: human FGF21 (ligand) GHPIPDSSPLLQFGGQVRQRYLYTDDAQQTEAHLEIREDGTVGGAADQSPESLLQLKALKPGVIQILGVKTSRFLCQRPDGALYGSLHFDPEACSFRELLLEDGYNVYQSEAHGLPLHLPGNKSPHRDPAPRGPARFLPLPGLPPAPPEPPGILAPQPPDVGSSDPLSMVGPSQGRSPSYAS
Response: 4000

Request: Look at this binder and give its reported Emax. Ab0423 (antibody, IgG4, V domains shown) VH: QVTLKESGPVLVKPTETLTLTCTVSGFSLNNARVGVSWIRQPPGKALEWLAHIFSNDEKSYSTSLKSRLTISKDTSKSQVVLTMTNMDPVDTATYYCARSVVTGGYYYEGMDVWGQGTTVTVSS VL: SYVLTQPPSVSVAPGQTARITCGGSNIGSESVHWYQQKPGQAPVLVVYSSSDRPSGIPERFSGSNSGNTATLTISRVEAGDEADYYCQVWEGASDHVVFGGGTKLTVLG
Response: 1510

Request: Using the record for Ab0464 (antibody, IgG4, V domains shown) VH: QVTLKESGPVLVKPTETLTLTCTVSGFSLTYARVGVSWIRQPPGKALEWLAHIFSNDEKSYSTSLKSRLTISKDTSKSQVVLTMTNMDPVDTATYYCARSVVTGGYYYEGMDVWGQGTTVTVSS VL: SYVLTQPPSVSVAPGQTARITCGGSNIGSESVHWYQQKPGQAPVLVVYEESDRPSGIPERFSGSNSGNTATLTISRVEAGDEADYYCQVWEGESDHVVFGGGTKLTVLG , report its Emax.
Response: 910

Request: Which Emax is listed for Ab0302 (antibody, IgG4, V domains shown) VH: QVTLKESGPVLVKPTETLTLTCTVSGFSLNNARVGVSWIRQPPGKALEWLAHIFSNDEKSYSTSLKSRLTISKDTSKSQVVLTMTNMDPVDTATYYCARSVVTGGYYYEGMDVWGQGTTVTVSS VL: SYVLTQPPSVSVAPGQTARITCGGNNIGSESVHWYQQKPGQAPVLVVYDESDRPSGIPERFSGSNSGNTATLTISRVEAGDEADYYCQVWTGNSDHVVFGGGTKLTVLG ?
Response: 795

Cited source for all entries: patent US20220010021A1
